Entries and their growth inhibition
test: NCI Yeast Anticancer Drug Screen. Data for the mlh1 strain (AID 171);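 note: 0% = growth of vehicle-treated control cultures of the same strain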; settings: S. cerevisiae mlh1 strain growth inhibition; at 1.2 µM; active compounds read high
This is part of a sample that, as a whole, favours compounds with a hit. Of some 79,000 tested, about 15% had one in any assay.
Number in %, nothing else.

Solved cases (5 shown):
CCOC(=O)Nc1ccc2c(c1)Cc1ccccc1-2; -14
CCCCCCCCCCCCCCCCNC(=O)/C(=C\c1ccc(Cl)c(Cl)c1)NC(=O)c1ccccc1; 0
COC(=O)c1cccc(C)c1C(=O)c1c(C)cc(C)cc1C; -1
O=Cc1coc2ccccc2c1=O; 1
CCCCC(CC)C(=O)Oc1ccc(C(=O)c2ccccc2)c(O)c1 (stereo unspecified); -9

Now look at this one.
Asked: May I ask what growth inhibition has been recorded for COc1cc(/C=C/c2sc3ccccc3[n+]2C)ccc1N(C)C ?
Given back: 0

----------
Known growth inhibition of a selection of compounds
test: NCI Yeast Anticancer Drug Screen. Data for the sgs1 strain (AID 173);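 note: 0% = growth of vehicle-only control cultures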; conditions: S. cerevisiae sgs1 mutant, at 11.0 µM, active compounds read high
This is part of a sample that, as a whole, favours compounds with a hit. Of some 79,000 tested, about 15% had one in any assay.
# value in %; strip the unit string

CC(C)c1cccc(O)c(=O)c1; -1
O=C1c2ccccc2C(=O)c2cc(S(=O)(=O)Nc3ccccc3)ccc21; 18
Cc1cc(O)c2c(c1O)C(=O)C13C(=C2O)C(=O)C2C(O)C1C1C(O)C3C(=O)C3=C(O)c4c(O)cc(C)c(O)c4C(=O)C321 (stereo unspecified); 54

Asked: Which growth inhibition is listed for O/N=C/C1c2ccccc2-c2ccccc21 ?
Given back: 0

Asked: # input compound: O=S(=O)(c1cc(Cl)ccc1O)c1cc(Cl)ccc1O ; wanted: its growth inhibition
Given back: 99

Asked: Consider the compound shown here: CCN(CC)N=Nc1c(C(N)=O)n[nH]c1C What is its recorded growth inhibition?
Given back: -2

Asked: Consider the compound shown here: COC(=O)c1n[nH]c(C)c1N=NN(C)CCC#N What is its recorded growth inhibition?
Given back: 99

Asked: # get_value(readout='growth inhibition', item= c1ccc2c(c1)Cn1c-2nc2ccccc21 )
Given back: -21

Asked: What does the record list as growth inhibition for CCNc1ccc2c(c1)C(=O)N(OS(C)(=O)=O)C2=O ?
Given back: 6

Asked: Dear colleague, I am looking for the recorded growth inhibition of the following compound: N#Cc1sc2c(c1OC(=O)c1ccco1)c(=O)n(-c1ccccc1)c(=S)n2-c1ccccc1
Given back: 0

Asked: For the compound C/C(=N\NC(=S)NC1CCCC1)c1ccccn1 , what growth inhibition is on record?
Given back: 99

----------
test: NCI Yeast Anticancer Drug Screen. Data for the rad50EPP+ strain (AID 151);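 note: 0% = growth of vehicle-treated control cultures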; conditions: S. cerevisiae rad50 mutant strain, at 33.0 µM, active compounds read high
Compounds without any hit were thinned out: in the full panel of roughly 79,000, 15% have a hit.
This listing pairs compounds with measured growth inhibition.
Supply the numeric figure in %, leaving out any unit text.

CCC(=O)N(c1ccccc1)C(C)CN1CCC(O)(c2cccc(C(F)(F)F)c2)CC1 (stereo unspecified); -2
CN=C(N)N/N=C(\C)c1ccc2oc3ccc(/C(C)=N/NC(N)=NC)cc3c2c1; 96
c1ccc(N2N=C3N(c4ccccc4)C2N3c2ccccc2)cc1; 6
COc1cc2c(cc1C[N+](C)(C)CSc1ccccc1)-c1ccccc1CC2; 20
CC(=O)Oc1ccc(C(=O)c2ccccc2)c(O)c1; 47
O=C1c2ccccc2C(=O)c2cc(S(=O)(=O)Nc3ccccc3)ccc21; 45
CNc1ccc(Cc2c[nH]c3ccccc23)cc1; 26
Cn1ncc2cc3c(Nc4ccc(Cl)cc4)cccc3nc21; 7
CCOC(=O)c1csc(Br)n1; 0
O=C(/C=C\c1ccc([N+](=O)[O-])o1)Nc1ccc(Cl)cc1; 91

Asked: For the compound CCCCC(CC)C(=O)Oc1ccc(C(=O)c2ccccc2)c(O)c1 (stereo unspecified) , what growth inhibition is on record?
Given back: 54

----------
test: NCI Yeast Anticancer Drug Screen. Data for the bub3 strain (AID 167); conditions: S. cerevisiae bub3 mutant strain, at 50.0 µM, active compounds read high
Compounds without any hit were thinned out: in the full panel of roughly 79,000, 15% have a hit. Residues, ends and D or L forms follow the SMILES beside them. *: point of attachment. CH2Cl = ClC*
Please mark MET if the recorded growth inhibition is equal to or greater than 90%, and NOT MET if it falls below.

N#CC(=C1C=CC(=NO)C=C1)c1ccccc1; MET
CC(=O)NC(CC(C)C)C(=O)NC(Cc1ccccc1)C(=O)CCl (stereo not drawn) (Ac-Leu-Phe-CH2Cl; configuration not given here); NOT MET
OC(CN1CCCCC1)c1cc(Cl)c(Cl)c(Cl)c1 (stereo unspecified); NOT MET
Cc1cc(OCc2ccccc2)ccc1[N+](=O)[O-]; NOT MET

Attention now shifts to the item below.
Asked: Determine whether measured growth inhibition meets or exceeds 90% for O=C1CSC(=S)N1Cc1ccc(Cl)cc1Cl
Given back: MET

----------
experiment: NCI Yeast Anticancer Drug Screen. Data for the rad52 strain (AID 147);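 note: 0% = growth of vehicle-treated control cultures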; settings: S. cerevisiae rad52 mutant growth inhibition; at 33.0 µM; active compounds read high
This is part of a sample that, as a whole, favours compounds with a hit. Of some 79,000 tested, about 15% had one in any assay.
assay.metric: growth inhibition (%)
Give the value in % but do not write % after it.

Recorded growth inhibition, per entry:
CC[C@@]1(OC(=O)CCC(=O)O)C(=O)OCc2c1cc1n(c2=O)Cc2cc3ccccc3nc2-1; 95
CC(C)c1cccc(O)c(=O)c1; 18
OCCN(CCO)c1ccc2c(c1)Cc1ccccc1-2; 20
CN(C)CC1CCCc2ccccc2C1=O (stereo unspecified); 2
Cc1cc(Cl)ccc1NC(=O)/C(Cl)=C1/Sc2ccccc2NC1=O; 0
Nc1ccc(CCl)cc1Cc1c(O)ccc2ccccc12; 19
c1ccc2c(c1)Cn1c-2nc2ccccc21; 78
CC(C)(O)c1ccccc1C(c1ccccc1)c1ccccc1; 3
CC(=O)[C@]1(O)Cc2c(O)c3c(c(O)c2[C@@H](OC2CC(N)C(O)C(C)O2)C1)C(=O)c1c(OCc2ccccc2)cccc1C3=O (stereo partly specified); 79
COC(=O)c1oc([N+](=O)[O-])c(Cl)c1Cl; 95

Asked: Can you share its growth inhibition? I mean this compound: CN(C)Cc1cccc(CN(C)C)[c]1[Sn]([Br])([c]1ccccc1)[c]1ccccc1
Given back: 74

----------
Here, each record is paired with measured growth inhibition data.
experiment: NCI Yeast Anticancer Drug Screen. Data for the sgs1 strain (AID 173);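 note: 0% = growth of vehicle-only control cultures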; settings: S. cerevisiae sgs1 mutant, at 100.0 µM, active compounds read high
Compounds without any hit were thinned out: in the full panel of roughly 79,000, 15% have a hit.
Write the value in % as a bare number.

N#Cc1sc2c(c1OC(=O)c1ccco1)c(=O)n(-c1ccccc1)c(=S)n2-c1ccccc1; 0
CN[C@@H]1C[C@H]2O[C@@](C)([C@@H]1OC)n1c3ccccc3c3c4c(c5c6ccccc6n2c5c31)C(=O)N[C@@H]4O; 43
O=C(O)c1ccccc1.[Ag]; 99
Cc1c(-c2ccccc2)[nH]c2ccccc12; 100
On1cnc(=S)c2[nH]cnc21; -32

Asked: Field request: growth inhibition | item: CCCCCCCCCCCCCCCCNC(=O)/C(=C\c1ccc(Cl)c(Cl)c1)NC(=O)c1ccccc1
Given back: 49

Asked: # query: growth inhibition of entry Nc1ccc2c(c1)sc1ccccc12
Given back: 99

Asked: Entry O=Nc1ccc(Nc2ccccc2)cc1 has what growth inhibition?
Given back: 97

Asked: Query: growth inhibition; subject: Oc1ccccc1N=Cc1ccc(Cl)cc1
Given back: 29

Asked: I'd like to know its growth inhibition. The compound in question is COc1ccc(N2CN(C)CSC2=S)cc1
Given back: 71

Asked: Reported growth inhibition for CCCCCC#CCOC(=O)C(=[N+]=[N-])P(=O)(c1ccccc1)c1ccccc1 : what is it?
Given back: 98

Asked: Quick one: growth inhibition for O=[N+]([O-])c1cccc2nc3ccccc3c(NCCc3cccc[n+]3[O-])c12 ?
Given back: 96

Asked: Query: growth inhibition; subject: O=C1c2c(O)cccc2-c2nn(CCNCCO)c3ccc(NCCNCCO)c1c23
Given back: 28

Asked: Given the entry NC(N)=NCCCS(=O)(=O)Nc1ccc(Nc2c3ccccc3nc3cc([N+](=O)[O-])ccc23)cc1 , report its measured growth inhibition.
Given back: 69

Asked: Look up growth inhibition for this compound: BrCc1ccccc1C(c1ccccc1)c1ccccc1
Given back: 96

Asked: Which measured growth inhibition value corresponds to O=C(CCc1ccccc1)ON1C(=S)C(c2ccccc2)(c2ccccc2)N=C1Sc1ccccc1 ?
Given back: 56

Asked: Need growth inhibition of O=[N+]([O-])/C(C(Cl)=C(Cl)Cl)=C1/OCCS1 , thanks.
Given back: 99

Asked: Which growth inhibition value belongs to O=C1NC(c2c(Cl)cccc2Cl)Nc2ccccc21 (centres undefined) ?
Given back: 88

Asked: I have this compound here, c1ccc2c(c1)Cn1c-2nc2ccccc21 , and I need its recorded growth inhibition.
Given back: 92

Asked: Name the reported growth inhibition value associated with the compound CC1OC(OC2CCCc3c(O)c4c(c(O)c32)C(=O)c2ccccc2C4=O)CC(N)C1O (centres undefined)
Given back: 99

Asked: For Clc1nc(C(Cl)Cl)nc2sc3c(c12)CCCC3 , what is its reported growth inhibition?
Given back: 78

Asked: Bench note: what growth inhibition did CC(=O)Oc1ccc(C(=O)c2ccccc2)c(O)c1 show?
Given back: 96

Asked: # lookup: growth inhibition of OCCN(CCO)c1ccc2c(c1)Cc1ccccc1-2
Given back: 76

Asked: Consider the compound shown here: CCCCCCCCCCCCCCCCCCNC(=S)/N=C\C1=C(O)c2ccccc2C1=O What is its recorded growth inhibition?
Given back: 30

Asked: Please look up its growth inhibition: S=C(S)NCC1CCC(CNC(=S)S)CC1 (centres undefined)
Given back: 87
